Tested on: nude mice, HT29 intrarenal xenograft, tumor weight T/C
Test: NCI In Vivo Anticancer Drug Screen. Data for tumor model HT29;CX-1 Human Adenocarcinoma (MER+) (intrarenal inoculation) in NU/NU Swiss (nude) mice
Conditions: endpoint: mean tumor weight change; dose: 0.5 mg/kg/injection; schedule: Q04DX004 (sc); vehicle: saline + alcohol; higher = larger tumour
Procedure: The antitumor activity of compounds was measured in mice bearing transplantable tumors. Survival or tumor size were measured and the results are expressed as the measurement made in the treated group (T) divided by the measurement made in the vehicle treated control group (C). The tumor model used in this assay is HT29;CX-1 Human Adenocarcinoma (MER+) (intrarenal inoculation) in NU/NU Swiss (nude) mice
Results filed as inconclusive are left out. Starred links: 1 amine or outer side, 2 acyl side, 3 side chain; linkers in the order of their positions; H or OH if unused. Positions of bridges follow the written chain, without caps; N, C: chain ends. Non-standard residues stand in square brackets, D forms with d. Residues, ends and D or L forms follow the SMILES beside them. Chains are numbered I, II in the order given. Actinocin(1to9) = Cc1c2oc3c(C)ccc(C(=O)[*:2])c3nc-2c(C(=O)[*:1])c(N)c1=O; NMeV = CN[CH](C(=O)O)C(C)C; Aze = O=C(O)[CH]1CCN1; Sar = CNCC(=O)O
Measured attribute: T/C

Qu. State its T/C on nude mice, HT29 intrarenal xenograft, tumor weight T/C: Cc1c2oc3c(C)ccc(C(=O)NC4C(=O)NC(C(C)C)C(=O)N5CCCC5C(=O)N(C)CC(=O)N(C)C(C(C)C)C(=O)OC4C)c3nc-2c(C(=O)NC2C(=O)NC(C(C)C)C(=O)N3CCC3C(=O)N(C)CC(=O)N(C)C(C(C)C)C(=O)OC2C)c(N)c1=O (centres undefined) (I: TV[Aze][Sar][NMeV] / II: TVP[Sar][NMeV]; ester I:1-I:C, II:1-II:C; linker I:N-II:N via Actinocin(1to9); configuration not given here)
Ans. 59 % of control

Qu. State its T/C on nude mice, HT29 intrarenal xenograft, tumor weight T/C: COC1/C=C/C=C(/C)Cc2cc(O)c(Cl)c(c2)N(C)C(=O)CC(OC(=O)C(C)C)C2(C)OC2C(C)C2CC1(O)NC(=O)O2 (centres undefined)
Ans. 123 % of control

Qu. State its T/C on nude mice, HT29 intrarenal xenograft, tumor weight T/C: `CO[C@H]1Nc2c(ccc(C)c2O)C(=O)N2C=C(/C=C/C(N)=O)C[C@@H]12`
Ans. 98 % of control

Qu. State its T/C on nude mice, HT29 intrarenal xenograft, tumor weight T/C: CCC/C=C/C=C/C(=O)OC1/C(=C/C(=O)OC)CC2CC(C(C)O)OC(=O)CC(O)CC3CC(OC(C)=O)C(C)(C)C(O)(CC4C/C(=C/C(=O)OC)CC(/C=C/C(C)(C)C1(O)O2)O4)O3 (centres undefined)
Ans. 110 % of control

* * *

Tested on: nude mice, HT29 intrarenal xenograft, tumor weight T/C
Assay: NCI In Vivo Anticancer Drug Screen. Data for tumor model HT29;CX-1 Human Adenocarcinoma (MER+) (intrarenal inoculation) in NU/NU Swiss (nude) mice
Settings: endpoint: mean tumor weight change; dose: 800.0 mg/kg/injection; schedule: Q04DX004 (sc); vehicle: saline; higher = larger tumour
Inconclusive results are not listed.
So I've got a bunch of molecules here, and I need their T/C values.

Qu. Entry Cc1cn(C2CC(O)C(CO)O2)c(=O)[nH]c1=O (stereo not drawn) has what T/C?
Ans. 94 % of control

Qu. Entry CCOC(=O)C(N)CSC(=O)NC (stereo not drawn) has what T/C?
Ans. 62 % of control

Qu. Entry NC(=O)CC(N)C(=O)O (stereo not drawn) has what T/C?
Ans. 119 % of control

Qu. Entry Nc1ncn(C2OC(CO)C(O)C2O)c(=O)n1 (stereo not drawn) has what T/C?
Ans. 7 % of control

Qu. Entry N=c1ccn2c(n1)OC1C(O)C(CO)OC12 (stereo not drawn) has what T/C?
Ans. 31 % of control

Qu. Entry `CN1CCN(c2ccc3nc(-c4ccc5nc(-c6ccc(O)cc6)[nH]c5c4)[nH]c3c2)CC1` has what T/C?
Ans. 56 % of control

Qu. Entry `NCCc1cc(O)c(O)c(O)c1` has what T/C?
Ans. 101 % of control

Qu. Entry `CN(C)[C@@H]1C(=O)C(C(N)=O)=C(O)[C@@]2(O)C(=O)C3=C(O)c4c(O)ccc(Cl)c4[C@@](C)(O)[C@H]3C[C@@H]12` has what T/C?
Ans. 82 % of control

* * *

System: nude mice, HT29 intrarenal xenograft, tumor weight T/C
Test: NCI In Vivo Anticancer Drug Screen. Data for tumor model HT29;CX-1 Human Adenocarcinoma (MER+) (intrarenal inoculation) in NU/NU Swiss (nude) mice
Conditions: endpoint: mean tumor weight change; dose: 200.0 mg/kg/injection; schedule: Q01DX010 (sc); vehicle: Klucel (hydroxypropylcellulose) (HPC); higher = larger tumour
Experimental: The antitumor activity of compounds was measured in mice bearing transplantable tumors. Survival or tumor size were measured and the results are expressed as the measurement made in the treated group (T) divided by the measurement made in the vehicle treated control group (C). The tumor model used in this assay is HT29;CX-1 Human Adenocarcinoma (MER+) (intrarenal inoculation) in NU/NU Swiss (nude) mice
Results filed as inconclusive are left out.
Measured attribute: T/C

Qu. Entry `Nc1ccccc1N` has what T/C?
Ans. 115 % of control

Qu. Entry CC1CN=C(c2ccc(NC(=O)c3ccc(C(=O)Nc4ccc(C5=NCC(C)N5)cc4)cc3)cc2)N1 (configuration not stated) has what T/C?
Ans. 44 % of control

Qu. Entry OC(CBr)C(O)C(O)C(O)CBr (configuration not stated) has what T/C?
Ans. 101 % of control

Qu. Entry `Cc1cc(N(CCOS(C)(=O)=O)CCOS(C)(=O)=O)ccc1C=Nc1ccc(-c2nc(Cc3ccccc3)sc2C)cc1` has what T/C?
Ans. 117 % of control

Qu. Entry `CC(=O)OCc1cc(=O)n(C)c2c3c4c(cc12)c(C)cc(=O)n4CO3` has what T/C?
Ans. 34 % of control

Qu. Entry `CCCC(=O)OCc1cc(=O)n(C)c2c3c4c(cc12)c(C)cc(=O)n4CO3` has what T/C?
Ans. 71 % of control

Qu. Entry `O=c1[nH]c(=O)n([C@H]2CCCO2)cc1F` has what T/C?
Ans. 103 % of control

Qu. Entry `C=CCNc1ccc(C)cc1` has what T/C?
Ans. 86 % of control

Qu. Entry C=C(NC(=O)C(=C)NC(=O)c1csc(C2=NC3c4csc(n4)C4NC(=O)c5csc(n5)C(C(C)(O)C(C)O)NC(=O)C5CSC(=N5)/C(=C/C)NC(=O)C(C(C)O)NC(=O)c5csc(n5)C3(CC2)NC(=O)C(C)NC(=O)C(=C)NC(=O)C(C)NC(=O)C(C(C)CC)NC2C=Cc3c(C(C)O)cc(nc3C2O)C(=O)OC4C)n1)C(N)=O (configuration not stated) has what T/C?
Ans. 34 % of control

Qu. Entry `Cc1ccc2c(ccc(CC(=S)[S-])[n+]2C)c1` has what T/C?
Ans. 44 % of control

Qu. Entry `ClCCCCCCCCCCc1ccccc1` has what T/C?
Ans. 36 % of control

Qu. Entry `N#CC(C#N)=C/C=C/c1cccc([N+](=O)[O-])c1` has what T/C?
Ans. 38 % of control

* * *

Tested on: nude mice, HT29 intrarenal xenograft, tumor weight T/C
Test: NCI In Vivo Anticancer Drug Screen. Data for tumor model HT29;CX-1 Human Adenocarcinoma (MER+) (intrarenal inoculation) in NU/NU Swiss (nude) mice
Details: endpoint: mean tumor weight change; dose: 100.0 mg/kg/injection; schedule: Q01DX010 (sc); vehicle: water; higher = larger tumour
Results filed as inconclusive are left out.
Measured attribute: T/C

Qu. State its T/C on nude mice, HT29 intrarenal xenograft, tumor weight T/C: CCCCNC(C)C1(O)Cc2c(O)c3c(c(O)c2C(OC2CC(N)C(O)C(C)O2)C1)C(=O)c1c(OC)cccc1C3=O (stereo not given)
Ans. 44 % of control

Qu. State its T/C on nude mice, HT29 intrarenal xenograft, tumor weight T/C: CC(C)[C@](O)(C(=O)OCC1=CC[N+]2([O-])CC[C@@H](O)[C@@H]12)[C@H](C)O (stereo not given in full)
Ans. 38 % of control

Qu. State its T/C on nude mice, HT29 intrarenal xenograft, tumor weight T/C: O=C(O)C1CSCN1 (stereo not given)
Ans. 105 % of control

Qu. State its T/C on nude mice, HT29 intrarenal xenograft, tumor weight T/C: `O=C1C(=O)c2ccccc2C(O)=C1CC=C(Cl)Cl`
Ans. 183 % of control

Qu. State its T/C on nude mice, HT29 intrarenal xenograft, tumor weight T/C: CCCCCCCCCCCC(=O)NC1CC(O[C@H]2C[C@](O)(C(=O)CO)Cc3c(O)c4c(c(O)c32)C(=O)c2c(OC)cccc2C4=O)OC(C)C1O (stereo not given in full)
Ans. 105 % of control
